For each of the compounds below, state its Emax.
# System Under Test: human F508del-CFTR (Homo sapiens, UniProt P13569, DEL508-508)
# Sequence (P13569 with tags, fused parts or gaps DEL508-508): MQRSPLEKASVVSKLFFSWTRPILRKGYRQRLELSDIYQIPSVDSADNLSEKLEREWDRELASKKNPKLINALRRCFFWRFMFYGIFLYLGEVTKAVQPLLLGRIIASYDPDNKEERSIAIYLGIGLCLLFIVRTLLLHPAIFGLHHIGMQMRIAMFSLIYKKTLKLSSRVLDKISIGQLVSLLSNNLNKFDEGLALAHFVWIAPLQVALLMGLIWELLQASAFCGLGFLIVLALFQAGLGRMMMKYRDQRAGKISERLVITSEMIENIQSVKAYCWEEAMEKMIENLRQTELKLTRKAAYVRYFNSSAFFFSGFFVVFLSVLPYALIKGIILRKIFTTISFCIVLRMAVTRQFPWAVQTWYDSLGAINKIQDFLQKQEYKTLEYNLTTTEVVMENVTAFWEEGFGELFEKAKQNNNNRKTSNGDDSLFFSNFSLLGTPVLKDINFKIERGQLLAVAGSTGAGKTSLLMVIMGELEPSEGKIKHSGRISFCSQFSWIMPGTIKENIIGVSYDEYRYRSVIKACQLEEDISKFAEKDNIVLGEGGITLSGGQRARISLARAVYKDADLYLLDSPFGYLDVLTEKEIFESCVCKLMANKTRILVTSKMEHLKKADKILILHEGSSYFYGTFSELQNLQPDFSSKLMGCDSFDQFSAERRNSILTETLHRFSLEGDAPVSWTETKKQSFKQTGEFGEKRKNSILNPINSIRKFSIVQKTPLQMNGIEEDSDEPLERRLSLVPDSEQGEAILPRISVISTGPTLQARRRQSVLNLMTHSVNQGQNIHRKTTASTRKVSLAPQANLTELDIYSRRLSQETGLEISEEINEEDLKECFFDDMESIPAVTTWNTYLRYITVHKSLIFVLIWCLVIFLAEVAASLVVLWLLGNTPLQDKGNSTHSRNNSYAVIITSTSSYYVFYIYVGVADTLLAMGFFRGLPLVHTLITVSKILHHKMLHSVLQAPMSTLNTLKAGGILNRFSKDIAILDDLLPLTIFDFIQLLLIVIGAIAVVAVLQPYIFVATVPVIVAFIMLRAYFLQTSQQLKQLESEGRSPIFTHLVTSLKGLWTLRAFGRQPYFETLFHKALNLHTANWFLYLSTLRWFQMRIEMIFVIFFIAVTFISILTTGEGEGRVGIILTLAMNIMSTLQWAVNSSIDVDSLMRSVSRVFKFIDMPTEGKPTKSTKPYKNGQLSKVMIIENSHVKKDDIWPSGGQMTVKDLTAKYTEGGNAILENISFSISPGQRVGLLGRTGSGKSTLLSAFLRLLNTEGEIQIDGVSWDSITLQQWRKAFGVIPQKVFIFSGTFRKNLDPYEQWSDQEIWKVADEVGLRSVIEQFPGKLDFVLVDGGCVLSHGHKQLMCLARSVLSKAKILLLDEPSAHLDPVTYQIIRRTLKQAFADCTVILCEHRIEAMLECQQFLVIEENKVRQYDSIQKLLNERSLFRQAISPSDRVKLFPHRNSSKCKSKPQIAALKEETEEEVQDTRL
# Protocol Description: F508del-CFTR cell surface expression (corrector activity), DiscoveRx ß-galactosidase complementation chemiluminescence assay in recombinant U2OS cell line
# Measurement Conditions: U2OS, in relation to Emax of corrector lumacaftor (=100%); arithmetic mean values
Answers are plain numbers, in %.

Some solved cases for reference:
{"columns": ["Compound", "Result Number"],
 "data": [
  ["COc1nccc2c1C(=O)N[C@H](C(=O)NCCc1cc(C3CC3)no1)CC(=O)N(C)[C@@H](CC(C)C)C(=O)N1CCC3(CC3)C[C@@H]1C(=O)N[C@H](Cc1ccccc1)CO2 [Example 668]", 330],
  ["COCC[C@@H]1C(=O)N[C@H](Cc2ccccc2)COc2cnc3ccccc3c2C(=O)N[C@H](C(=O)NCCc2cc(C)no2)CC(=O)N(C)[C@@H](CC(C)C)C(=O)N1C [Example 566]", 278],
  ["CC(C)C[C@H]1C(=O)N2CCCC[C@@H]2C(=O)N[C@H](Cc2ccccc2)COc2ccc3ncc(F)cc3c2C(=O)N[C@H](C(=O)NCCc2cc(C3CC3)no2)CC(=O)N1C [Example 655]", 318],
  ["Cc1cc(CCNC(=O)[C@@H]2CC(=O)N(C)[C@@H](CC(C)C)C(=O)N3CCN(C(=O)OCC(Cl)(Cl)Cl)C[C@@H]3C(=O)N[C@H](Cc3ccccc3)COc3cnc4ccccc4c3C(=O)N2)on1 [Example 458]", 238]
]}

Turning to the following compound.
QUERY: Provide one value: measured Emax of CC(C)C[C@H]1C(=O)N2CCCC[C@@H]2C(=O)N[C@H](Cc2ccccc2)COc2cnc3ccc(F)cc3c2C(=O)N[C@H](C(=O)NCCc2c(F)cccc2F)CC(=O)N1C [Example 636]
RESULT: 276

* * *

For each of the molecules below, state its EC50.
# System Under Test: human F508del-CFTR (Homo sapiens, UniProt P13569, DEL508-508)
# Protocol Description: F508del-CFTR cell surface expression (corrector activity), DiscoveRx ß-galactosidase complementation chemiluminescence assay in recombinant U2OS cell line
# Measurement Conditions: EC50, F508del-CFTR cell surface expression, U2OS cells, 16h compound incubation; geomean values

{"columns": ["Molecule", "EC50"],
 "data": [
  ["CC(C)C[C@H]1C(=O)N2CCCC[C@H]2C(=O)N[C@H](Cc2ccccc2)COc2cnc3ccc(F)cc3c2C(=O)N[C@H](C(=O)NCCc2nc(C3CC3)no2)CC(=O)N1C [Example 521]", "433 nM"],
  ["COc1nccc2c1C(=O)N[C@H](C(=O)NCCc1cc(C)no1)CC(=O)N(C)[C@@H](CC(C)C)C(=O)N1CCN(c3ccccc3)C[C@H]1C(=O)N[C@H](Cc1ccccc1)CO2 [Example 550]", "687 nM"],
  ["COc1nc(C)cc2c1C(=O)N[C@H](C(=O)NCCc1cc(C(F)(F)F)no1)CC(=O)N(C)[C@@H](CC(C)C)C(=O)N1CCCC[C@H]1C(=O)N[C@H](Cc1ccccc1)CO2 [Example 667]", "764 nM"],
  ["CO[C@H]1C[C@]2(C1)C(=O)N[C@H](Cc1ccccc1)COc1ccc3ccccc3c1C(=O)N[C@H](C(=O)NCCc1cc(C)no1)CC(=O)N(C)[C@@H](CC(C)C)C(=O)N2C [Example 633]", "652 nM"],
  ["Cc1nc2ccc3c(c2o1)C(=O)N[C@H](C(=O)NCCc1ccc2c(c1)OCCO2)CC(=O)N(C)[C@@H](CC(C)C)C(=O)N1CCN(C2CC2)C[C@@H]1C(=O)N[C@H](Cc1ccccc1)CO3 [Example 421]", "391 nM"]
]}

Could you report EC50 for every entry in the following list?
1. Cc1cc2ccc3c(c2o1)C(=O)N[C@H](C(=O)NCCc1noc(C2CC2)n1)CC(=O)N(C)[C@@H](CC(C)C)C(=O)N(C)CC(=O)N[C@H](Cc1ccccc1)CO3 [Example 561]
2. COc1cccc(CCNC(=O)[C@@H]2CC(=O)N(C)[C@@H](CC(C)C)C(=O)N3CCN(S(=O)(=O)c4cccc(OC(F)(F)F)c4)C[C@@H]3C(=O)N[C@H](Cc3ccccc3)COc3ccc4ccccc4c3C(=O)N2)c1 [Example 732]
3. COc1cccc(CCNC(=O)[C@@H]2CC(=O)N(C)[C@@H](CC(C)C)C(=O)N3CCN(S(=O)(=O)c4cccc(OC)c4)C[C@@H]3C(=O)N[C@H](Cc3ccccc3)COc3ccc4ccccc4c3C(=O)N2)c1 [Example 739]

RESULT:
1. 437 nM
2. 64 nM
3. 101 nM

Could you report EC50 for every entry in the following list?
1. Cc1cc(CCNC(=O)[C@@H]2CC(=O)N(C)[C@@H](CC(C)C)C(=O)N3CCCC[C@H]3C(=O)N[C@H](Cc3ccccc3)COc3cnc4ccc(Cl)cc4c3C(=O)N2)on1 [Example 527]
2. COc1cc(CCNC(=O)[C@@H]2CC(=O)N(C)[C@@H](CC(C)C)C(=O)N3CCCC[C@H]3C(=O)N[C@H](Cc3ccccc3)COc3ccc4ncc(F)cc4c3C(=O)N2)on1 [Example 770]

RESULT:
["151 nM", "1000 nM"]

* * *

# System Under Test: human F508del-CFTR (Homo sapiens, UniProt P13569, DEL508-508)
# Protocol Description: F508del-CFTR cell surface expression (corrector activity), DiscoveRx ß-galactosidase complementation chemiluminescence assay in recombinant U2OS cell line
# Measurement Conditions: EC50, F508del-CFTR cell surface expression, U2OS cells, 16h compound incubation; geomean values
Readout Label: EC50 (nM)
Numbers only, in nM.

Some solved cases for reference:
{"columns": ["Compound", "System Under Test", "Measurement Unit", "EC50"],
 "data": [
  ["COc1cccc(CCNC(=O)[C@@H]2CC(=O)N(C)[C@@H](CC(C)C)C(=O)N3CCNC[C@@H]3C(=O)N[C@H](Cc3ccccc3)COc3ccc4ccccc4c3C(=O)N2)c1", "human F508del-CFTR (Homo sapiens, UniProt P13569, DEL508-508)", "nM", 624],
  ["COc1cc(CCNC(=O)[C@@H]2CC(=O)N(C)[C@@H](CC(C)C)C(=O)N(C)[C@H](CC(F)F)C(=O)N[C@H](Cc3ccccc3)COc3cc(C)nc(OC)c3C(=O)N2)on1", "human F508del-CFTR (Homo sapiens, UniProt P13569, DEL508-508)", "nM", 210]
]}

Could you report EC50 for every entry in the following list?
1. CC[C@@H]1C(=O)N[C@H](Cc2ccccc2)COc2cc(C)nc(OC)c2C(=O)N[C@H](C(=O)NCCc2cc(C)no2)CC(=O)N(C)[C@@H](CC(C)C)C(=O)N1C
2. COc1cccc(CCNC(=O)[C@@H]2CC(=O)N(C)[C@@H](CC(C)C)C(=O)N3CCCC[C@@H]3C(=O)N[C@H](Cc3ccccc3)COc3cnc4ccc(Cl)cc4c3C(=O)N2)c1
3. CC(C)C[C@H]1C(=O)N2CCOC[C@@H]2C(=O)N[C@H](Cc2ccccc2)COc2cnc3ccc(F)cc3c2C(=O)N[C@H](C(=O)NCCc2noc(C3CC3)n2)CC(=O)N1C
4. Cc1cc(CCNC(=O)[C@@H]2CC(=O)N(C)[C@@H](CC(C)C)C(=O)N(C)[C@@H](C)C(=O)N[C@H](Cc3ccccc3)COc3ccc4cc(C)oc4c3C(=O)N2)on1 (mixture of isomers)
5. COc1cccc(CCNC(=O)[C@@H]2CC(=O)N(C)[C@@H](CC(C)C)C(=O)N3CCOC[C@@H]3C(=O)N[C@H](Cc3ccccc3)COc3ccc(OC)cc3C(=O)N2)c1
6. Cc1cc(CCNC(=O)[C@@H]2CC(=O)N(C)[C@@H](CC(C)C)C(=O)N(C)[C@@H](COCc3ccccc3)C(=O)N[C@H](Cc3ccccc3)COc3ccc4ccccc4c3C(=O)N2)on1

RESULT:
1: 841; 2: 321; 3: 625; 4: 523; 5: 650; 6: 144

Could you report EC50 for every entry in the following list?
1. [2H]C([2H])([2H])Oc1nc(C)cc2c1C(=O)N[C@H](C(=O)NCCc1noc(C3CC3)n1)CC(=O)N(C)[C@@H](CC(C)C)C(=O)N1CCCC[C@@H]1C(=O)N[C@H](Cc1ccccc1)CO2
2. COc1cccc(CCNC(=O)[C@@H]2CC(=O)N(C)[C@@H](CC(C)C)C(=O)N(C)C3(CC3)C(=O)N[C@H](Cc3ccccc3)COc3ccc4cc(C)oc4c3C(=O)N2)c1

RESULT:
1. 484
2. 222

* * *

# System Under Test: human F508del-CFTR (Homo sapiens, UniProt P13569, DEL508-508)
# Protocol Description: F508del-CFTR cell surface expression (corrector activity), DiscoveRx ß-galactosidase complementation chemiluminescence assay in recombinant U2OS cell line;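 further: U2OS cells co-expressing ProLink-tagged F508del-CFTR and a membrane-anchored enzyme acceptor, where more surface CFTR restores β-galactosidase activity measured by chemiluminescence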
# Measurement Conditions: EC50, F508del-CFTR cell surface expression, U2OS cells, 16h compound incubation; geomean values
Returns: string. Value is YES if measured EC50 is below 400 nM, and NO if it is greater than or equal to it.

Some solved entries appear below for comparison.
{"columns": ["Compound", "Class Assignment"],
 "data": [
  ["Cc1cc(CCNC(=O)[C@@H]2CC(=O)N(C)[C@@H](CC(C)C)C(=O)N3CCN(C4CC4)C[C@@H]3C(=O)N[C@H](Cc3ccccc3)COc3cnc4ccccc4c3C(=O)N2)on1", "YES"],
  ["COc1cccc(CCNC(=O)[C@@H]2CC(=O)N(C)[C@@H](CC(C)C)C(=O)N(C)C3(CC3)C(=O)N[C@H](Cc3ccccc3)COc3ccc4cccnc4c3C(=O)N2)c1", "NO"],
  ["COCC[C@@H]1C(=O)N[C@H](Cc2ccccc2)COc2cnc3ccccc3c2C(=O)N[C@H](C(=O)NCCc2cc(C)no2)CC(=O)N(C)[C@@H](CC(C)C)C(=O)N1C", "NO"],
  ["COc1cc(CCNC(=O)[C@@H]2CC(=O)N(C)[C@@H](CC(C)C)C(=O)N3CCCC[C@@H]3C(=O)N[C@H](Cc3ccccc3)COc3ccc4ncc(F)cc4c3C(=O)N2)on1", "YES"],
  ["CC(C)C[C@H]1C(=O)N(C)C2(CC2)C(=O)N[C@H](Cc2ccccc2)COc2ccc3ncc(F)cc3c2C(=O)N[C@H](C(=O)NCCc2noc(C3CC3)n2)CC(=O)N1C", "YES"]
]}

Moving on to the next compound.
QUERY: Below 400 nM on EC50? Entry COc1cccc(CCNC(=O)[C@@H]2CC(=O)N(C)[C@@H](CC(C)C)C(=O)N3CCN(CCCO)C[C@@H]3C(=O)N[C@H](Cc3ccccc3)COc3ccc4ccccc4c3C(=O)N2)c1
RESULT: YES

All values here come from patent US20240208992A1.
